This collection of values is drawn from PubChem BioAssay (NCI).

- Test system: SNB-19 CNS
- assay.summary: NCI-60 one-dose screen, 48 h (100 = growth as untreated, 0 = no growth, -100 = all killed)
- measurement.conditions: 10 µM unless noted
Compounds without any hit were thinned out: in the full panel of roughly 83,000, 20% have a hit. Active and inactive are the calls of the source. The calls were made as follows: active = growth percent below 10; inactive = the rest.
Overview of recorded growth for various compounds
experimental.endpoint: growth

COc1cc(-c2nn(C)nc2-c2cc3ccccc3s2)cc(OC)c1OC : 26.7% (inactive)
CN(CCCCCl)P(=O)(OCc1ccc([N+](=O)[O-])o1)C(F)(F)c1ccc(CC(=O)NC[C@@H](O)/C=C\[C@@H](O)[C@H](CO)Cc2ccccc2)cc1 (some centres not stated) : 102% (inactive)
C#Cc1cccc(NC(=O)c2ccccc2NC(=O)CCl)c1 : 74.2% [8.25 µM] (inactive)
COc1ccc(-c2cc(Nc3ccnc(N4CCOCC4)n3)on2)cc1 : 39% (inactive)
O=C(Cc1ccc(/C=C/C(=O)c2ncc[nH]2)cc1)Nc1ccc(F)cc1 : 14.2% (inactive)
CSc1ccc(-c2n[nH]nc2-c2cc3ccccc3s2)cc1 : 55.7% (inactive)
COc1ccc(-c2nc3ccc(-c4nc5ccc(N6CCN(c7ccncc7)CC6)cc5[nH]4)cc3[nH]2)cc1OC : 40.9% (inactive)
C=C1C(=O)O[C@H]2[C@H]1CC/C(COC(=O)c1cc3cc(OC)ccc3[nH]1)=C\CC[C@@]1(C)O[C@@H]21 : -64.3% (active)
CC(C)CC1C(=O)N2CCC[C@H]2C2(O)O[C@](NC(=O)C3C=C4c5cccc6[nH]c(Br)c(c56)C[C@H]4N(C)C3)(C(C)C)C(=O)N12 (some centres not stated) : 69.9% (inactive)
C=C1c2nc3ccccc3n2C=C(c2cccc(Cl)c2)N1Cc1ccc(OC)cc1 : 20.4% (inactive)
CCN1CCC2(CC1)NC(=O)c1c(c3ccc(Cl)c(Cl)c3n1C)C2C#N (configuration not stated) : 84.9% (inactive)
CN(C)CCCNc1c2ccccc2nc2ccccc12 : 90.5% (inactive)
N#C/C(=C\c1ccc(-c2cc(C(F)(F)F)ccc2Cl)o1)c1nc(-c2ccco2)cs1 : 95.2% (inactive)
CNc1ccc(-c2cc(=O)oc3ccc(Cl)cc23)cc1 : 22.7% (inactive)
CC(=O)NCC1c2c(n(C)c3c(Cl)c(Cl)ccc23)C(=O)NC1(C)C (configuration not stated) : 102% (inactive)
CC(C)CSc1nc(N)nc2c1ncn2C1OC(CO)C(O)C1O (configuration not stated) : 104% (inactive)
CCOC(=O)c1c(C)oc2ncnc(N3CCN(C(=O)COc4ccc(SC)cc4)CC3)c12 : 97.9% (inactive)
CCOc1nc(-c2ccccc2)cc2c(O)c(C(=O)O)[nH]c(=O)c12 : 94.3% (inactive)
Cc1nc2ccccc2n1C(=O)C[C@@H]1NC(=S)NC1=O : 98.3% (inactive)
CN(C)c1ccc(N=Nc2ccccn2)c(O)c1 : 18.6% (inactive)
O=C(O)c1ccc(NC(=O)c2ccc(-c3cccc([N+](=O)[O-])c3)o2)cc1 : 92% (inactive)
COc1ccc(C(=O)/C=C/c2cccnc2Nc2cc(OC)c(OC)c(OC)c2)cc1 : 36.3% (inactive)
C=C(C)C1CC(O)C2(C)CCCC3C2C1CC(C)C3(C)CC/C(C)=C/C(O)C1CCC(=O)c2c(OC)cc(OC)cc21 (configuration not stated) : 56.5% (inactive)
COc1cc(-c2nc3cc(Cl)c(Cl)cc3[nH]2)ccc1OCC(=O)N=Nc1c(O)[nH]c2ccccc12 : 0.731% (active)
CCOC(=O)c1csc(NC(=O)COc2cccc(/C=C3\CSc4ccccc4C3=O)c2)n1 : 81.3% (inactive)
O=C(O)COc1ccc(Cl)cc1C1CCCCC1 : 99.9% (inactive)
Cc1ccc(NC(=O)C2CCC(CN3CCN(C)CC3)CC2)cc1Nc1nccc(-c2cccnc2)n1 (configuration not stated) : 100% (inactive)
CC(=O)O[C@H]1C(=O)[C@@]2(C)[C@H]([C@H](OC(=O)c3ccccc3)[C@]3(O)C[C@H](OC(=O)[C@H](OC(=O)CCC(=O)OC4CCC(S/N=C(N)/N=C(\N)N(C)C)CC4)[C@@H](NC(=O)c4ccccc4)c4ccccc4)C(C)=C1C3(C)C)[C@]1(OC(C)=O)CO[C@@H]1C[C@@H]2O (some centres not stated) : 29.8% (inactive)
CCCSc1ccc2nc(NC(=O)OC)[nH]c2c1 : 29.9% (inactive)
Cc1ccc2c(c1)C(=O)/C(=C/c1cccc(OCC(=O)c3ccc(Cl)cc3)c1)CS2 : 93.9% (inactive)
O=C1/C(=C/c2cn(-c3ccccc3)nc2-c2ccccc2)SC(=S)N1CCc1ccccc1 : 99% (inactive)
Cc1ccc2c(C(C[N+](=O)[O-])c3ccccc3)c(-c3ccccc3)[nH]c2c1 (configuration not stated) : 37.4% [9.5 µM] (inactive)
